Reference source for all entries: patent US20210261512A1

# testedOn: NLRP3 (Homo sapiens, UniProt Q96P20)
# Sequence (Q96P20 whole entry): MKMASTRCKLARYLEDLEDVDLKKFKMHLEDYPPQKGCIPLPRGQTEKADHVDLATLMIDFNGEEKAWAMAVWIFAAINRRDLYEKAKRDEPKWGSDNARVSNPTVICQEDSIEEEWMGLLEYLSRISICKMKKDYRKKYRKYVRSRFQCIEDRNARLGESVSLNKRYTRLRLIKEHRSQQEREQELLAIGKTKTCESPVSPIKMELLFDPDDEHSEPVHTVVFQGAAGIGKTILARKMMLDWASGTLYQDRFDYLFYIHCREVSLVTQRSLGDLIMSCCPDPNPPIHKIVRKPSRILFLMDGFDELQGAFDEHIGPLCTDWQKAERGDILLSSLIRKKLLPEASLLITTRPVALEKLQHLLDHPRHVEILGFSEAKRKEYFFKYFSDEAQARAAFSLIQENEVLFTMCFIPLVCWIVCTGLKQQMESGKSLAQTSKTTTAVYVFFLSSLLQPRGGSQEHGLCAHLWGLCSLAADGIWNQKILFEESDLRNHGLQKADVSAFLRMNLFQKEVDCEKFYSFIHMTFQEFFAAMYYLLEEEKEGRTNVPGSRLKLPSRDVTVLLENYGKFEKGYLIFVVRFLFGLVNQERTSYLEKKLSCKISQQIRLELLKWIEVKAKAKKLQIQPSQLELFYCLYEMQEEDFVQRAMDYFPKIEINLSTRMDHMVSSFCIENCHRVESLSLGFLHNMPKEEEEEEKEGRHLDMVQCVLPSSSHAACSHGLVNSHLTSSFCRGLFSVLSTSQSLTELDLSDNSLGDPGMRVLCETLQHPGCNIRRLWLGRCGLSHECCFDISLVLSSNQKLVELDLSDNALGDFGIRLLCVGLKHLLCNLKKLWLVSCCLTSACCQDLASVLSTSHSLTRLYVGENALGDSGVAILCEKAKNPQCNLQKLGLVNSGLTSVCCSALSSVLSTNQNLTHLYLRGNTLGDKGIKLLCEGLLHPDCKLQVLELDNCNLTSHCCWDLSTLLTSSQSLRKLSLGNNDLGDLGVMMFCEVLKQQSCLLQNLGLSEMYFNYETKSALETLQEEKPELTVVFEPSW
# experimentNotes: THP-1 cells pyroptosis assay
# Format: cell-based
# Parameters: Seed THP-1 cells (25,000 cells/well) containing 1.0 μg/ml LPS; host or cells: THP-1
# testSettings: LPS 1.0 μg/ml, nigericin 5 μM, resazurin readout, 10 μM top dose (Example 2: top dose of 30 μM)
# Procedure: THP-1 cells (ATCC #TIB-202) were grown in RPMI containing L-glutamine (Gibco #11835) supplemented with imM sodium pyruvate (Sigma #S8636) and penicillin (100 units/ml)/streptomycin (0.1 mg/ml) (Sigma #P4333) in 10% Fetal Bovine Serum (FBS) (Sigma #F0804). […] The cells were then counted and viability (>90%) checked by Trypan blue (Sigma #T8154). […] The following method step-by-step assay was followed for compound screening. • 1. […] Plates were read in an Envision reader at Ex 560 nm and Em 590 nm • 9. […]
propertyLabel: IC50

Check out these entries, answers already filled in.
Cc1cc2c(c(Nc3nnc(S(=O)(=O)c4ccccc4)[nH]3)c1-c1ccnc(OC3CCOCC3)c1)CCC2 :: ≤ 0.5 µM
CN(C)C(=O)C1CCN(S(=O)(=O)c2nnc(Nc3c4c(cc5c3CCC5)CCC4)[nH]2)C1 (stereo not shown) :: ≤ 1 µM
O=S(=O)(c1ccccc1)c1nc(Nc2c(-c3cccnc3)cc(F)c3c2CCC3)n[nH]1 :: ≤ 10 µM
CN(C)C1CN(S(=O)(=O)c2nnc(Nc3c4c(cc5c3CCC5)CCC4)[nH]2)C1 :: ≤ 5 µM

**Query** Report IC50 under test system NLRP3 (Homo sapiens, UniProt Q96P20) for COc1cc(-c2cc(F)cc(C(C)C)c2Oc2nnc(S(=O)(=O)N3CCC4(CCCN4C)CC3)[nH]2)ccn1 .
**Result** ≤ 0.5 µM

**Query** Report IC50 under test system NLRP3 (Homo sapiens, UniProt Q96P20) for COc1cc(-c2cc(F)cc(C(C)C)c2Cc2nnc(S(=O)(=O)N3CCC(CN(C)C)C3)[nH]2)ccn1 (stereo not shown) .
**Result** ≤ 1 µM

====

Listing of recorded IC50 by entry.
# testedOn: NLRP3 (Homo sapiens, UniProt Q96P20)
# experimentNotes: THP-1 cells pyroptosis assay
# Format: cell-based
# Design: Seed THP-1 cells (25,000 cells/well) containing 1.0 μg/ml LPS; host or cells: THP-1
# testSettings: LPS 1.0 μg/ml, nigericin 5 μM, resazurin readout, 10 μM top dose (Example 2: top dose of 30 μM)

Check out these entries, answers already filled in.
CC(C)(O)C1CCN(S(=O)(=O)c2nnc(Nc3c4c(cc5c3CCC5)CCC4)[nH]2)CC1 :: ≤ 500 nM
Cc1cccc(S(=O)(=O)c2nnc(Nc3c4c(cc5c3CCC5)CCC4)[nH]2)c1 :: ≤ 5000 nM
CCN(CC)CCCNS(=O)(=O)c1nnc(Nc2c3c(cc4c2CCC4)CCC3)[nH]1 :: ≤ 500 nM

Now for another entry.
**Query** Report IC50 under test system NLRP3 (Homo sapiens, UniProt Q96P20) for Cc1cc(-c2ccc3c(c2Nc2nnc(S(=O)(=O)N4CCC(N(C)C)CC4)[nH]2)CCO3)ccn1 .
**Result** ≤ 5000 nM

====

# testedOn: NLRP3 (Homo sapiens, UniProt Q96P20)
# experimentNotes: Human whole blood IL1β release assay
# Type: cell-based
# testSettings: LPS 1 μg/ml, nigericin 10 μM, IL-1β AlphaLisa, 10 μM top dose (Example 2: top dose of 30 μM), read-out: HWB IC50
propertyLabel: IC50

Check out these entries, answers already filled in.
CC(C)n1ccc(S(=O)(=O)c2nnc(Nc3c(-c4ccncc4)cc(F)c4c3CCC4)[nH]2)n1 [Example 36] :: ≤ 10 µM
O=S(=O)(c1nnc(Nc2c3c(cc4c2CCC4)CCC3)[nH]1)N1CCC2(CCN2C2CC2)CC1 [Example 254] :: ≤ 5 µM
CN1CCCNC(=O)C12CCN(S(=O)(=O)c1nnc(Nc3c4c(cc5c3CCC5)CCC4)[nH]1)CC2 [Example 294] :: ≤ 5 µM

Now for another entry.
**Query** For the compound CNC[C@H]1CCN(S(=O)(=O)c2nnc(Nc3c4c(cc5c3CCC5)CCC4)[nH]2)C1 [Example 288] , give its reported IC50.
**Result** ≤ 1 µM
